system: PBMC; test: Immunosuppressive activity in human PBMC assessed as inhibition of PHA-induced T cell proliferation after 72 hrs by [3H]thymidine incorporation assay; format: functional, cell-based
Binary call on IC50 with cut-off 8 µg/mL: strictly below means MET, and equality or higher means NOT MET.

1. Nc1ccc(C(=O)/C=C/c2cccc(Cl)c2)cc1
MET
2. CC1C/C(=N\NC(=O)Nc2ccccc2)Nc2cc([N+](=O)[O-])ccc2N1 (configuration not stated)
NOT MET
3. O=C(/C=C/c1ccccc1)c1ccccc1O [2'-HYDROXYCHALCONE]
NOT MET
4. CC1CC(=O)Nc2cc(N)ccc2N1 (configuration not stated)
MET

Now look at this one.
Strictly below 8 µg/mL in IC50? `Cc1ccc(/C=C/C(=O)c2ccc(N)cc2)cc1`
MET
